Entries annotated with measured interaction score
Target: T1, 4H2774-AA
T1 chain: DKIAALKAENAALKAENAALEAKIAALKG
Assay: two-hybrid library CCmax;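 also: natural log of median RNA to DNA barcode read ratio; higher means stronger binding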
Details: mean of both orientations
Field format: numeric only.

stdin: Could you share which interaction score value was measured for DKIAALKAEIAALEAKNAALKAKIAALEG [4H2621-AA] ?
stdout: -0.116

stdin: Could you share which interaction score value was measured for DENAALEAEIAALEAEIAALKAKNAALKG [4H1040-AA] ?
stdout: -0.661

stdin: Could you share which interaction score value was measured for DKIAALEAEIAALKAKNAALEAKIAALEG [4H2165-AA] ?
stdout: -0.839

stdin: Could you share which interaction score value was measured for DKIAALKAEIAALEAENAALEAENAALKG [4H2580-AA] ?
stdout: -1.28

stdin: Could you share which interaction score value was measured for DKIAALKAEIAALEAKIAALKAENAALKG [4H2604-AA] ?
stdout: -1.79
